Value source: PubChem BioAssay (NCI)

System: NCI/ADR-RES ovarian
ASSAY NOTES: NCI tumour cell line growth inhibition, 48 h; in the data active = GI50 below about 0.43 µM; inactive = the rest
Classes to choose from: active, inactive

Status in this test for COc1ccc(-c2cc(Nc3ccnc(N4CCOCC4)n3)on2)cc1 ?
active

Status in this test for COc1cc(/C=C2\CCC/C(=C\c3ccc(OCC4CO4)c(OC)c3)C2=O)ccc1OCC1CO1 (stereo not given) ?
inactive

Status in this test for CN(C)CCNc1nc2ccccc2c2c(=O)c3cc(F)ccc3sc12 ?
inactive

Status in this test for C=C1C(O)C2C(=C(C)C13CC3)C(=O)C(C)(C)C2OC (stereo not given) ?
inactive

Status in this test for O=C1/C(=C/N2N=C(c3ccc4ccccc4c3)CC2c2ccccc2O)SC(=S)N1c1cccnc1 (stereo not given) ?
inactive
